MIC tested on C. difficile ATCC17857: recorded values
Express it in µg/mL; write the number only.

{"compound": "C=C1OC(=O)C(C(=O)CCC/C=C\\CCCCCC)=C1O [PB-6042B]", "MIC (µg/mL)": 1.56}
{"compound": "C=C1OC(=O)C(C(=O)CCCCCCCCC)=C1O [PB-6042A]", "MIC (µg/mL)": 3.13}
{"compound": "C=C1OC(=O)C(C(=O)CCCCCCCCCCC)=C1O [PB-6042C]", "MIC (µg/mL)": 0.78}

Now take the following compound into account.
// query Quote MIC reported for C=C1OC(=O)C(C(=O)CCCC/C=C\CCCCCCC)=C1O [PB-6042D] please.
// result 1.56

---

MIC values, listed per item
Tested on: S. pyogenes C-203
procedure-text: MIC against aerobic bacteria
run-conditions: Streptococcus pyogenes, C203
Remember to follow the number with its unit.

Solved entries:
{"compound": "C=C1OC(=O)C(C(=O)CCCCCCCCCCC)=C1O [PB-6042C]", "system-tested": "S. pyogenes C-203", "value": "12.5 µg/mL"}
{"compound": "C=C1OC(=O)C(C(=O)CCCC/C=C\\CCCCCCC)=C1O [PB-6042D]", "system-tested": "S. pyogenes C-203", "value": "12.5 µg/mL"}
{"compound": "C=C1OC(=O)C(C(=O)CCC/C=C\\CCCCCC)=C1O [PB-6042B]", "system-tested": "S. pyogenes C-203", "value": "12.5 µg/mL"}

Now take the following compound into account.
// query Quote MIC reported for C=C1OC(=O)C(C(=O)CCCCCCCCC)=C1O [PB-6042A] please.
// result 25 µg/mL
